# Tested on: Bacillus cereus
# measurement.notes: Antibacterial activity against Bacillus cereus MTCC 430 at 100 ug/disc by paper disc diffusion technique
# Format: functional
# protocol.conditions: read-out: IZ
Outcome: Y for zone of inhibition at 100 µg/disc of at least 20 mm; N for anything lower.

{"query.smiles": "O=C(CSc1nnc(Cn2cnc3ccccc32)o1)Nc1nc2ccc(F)cc2s1", "group": "Y"}
{"query.smiles": "CC(=O)Nc1ccc2nc(NC(=O)CSc3nnc(Cn4cnc5ccccc54)o3)sc2c1", "group": "N"}
{"query.smiles": "O=C(CSc1nnc(Cn2cnc3ccccc32)o1)Nc1ccccc1", "group": "N"}
{"query.smiles": "O=C(CSc1nnc(Cn2cnc3ccccc32)o1)Nc1nc2ccc(I)cc2s1", "group": "Y"}
{"query.smiles": "O=C(CSc1nnc(Cn2cnc3ccccc32)o1)Nc1ccc([N+](=O)[O-])cc1", "group": "N"}
{"query.smiles": "N#Cc1ccc(NC(=O)CSc2nnc(Cn3cnc4ccccc43)o2)cc1", "group": "N"}
{"query.smiles": "O=C(CSc1nnc(Cn2cnc3ccccc32)o1)Nc1nc2ccccc2s1", "group": "N"}
{"query.smiles": "O=C(CSc1nnc(Cn2cnc3ccccc32)o1)Nc1nc2ccc(Cl)cc2s1", "group": "Y"}
{"query.smiles": "O=C(CSc1nnc(Cn2cnc3ccccc32)o1)Nc1ccc(I)cc1", "group": "N"}
{"query.smiles": "Cc1ccc2nc(NC(=O)CSc3nnc(Cn4cnc5ccccc54)o3)sc2c1", "group": "N"}
{"query.smiles": "O=C(CSc1nnc(Cn2cnc3ccccc32)o1)Nc1nc2ccc(Br)cc2s1", "group": "Y"}
{"query.smiles": "Cc1ccc(NC(=O)CSc2nnc(Cn3cnc4ccccc43)o2)cc1", "group": "N"}
{"query.smiles": "CCOc1ccc(NC(=O)CSc2nnc(Cn3cnc4ccccc43)o2)cc1", "group": "N"}
{"query.smiles": "CC(=O)Nc1ccc(NC(=O)CSc2nnc(Cn3cnc4ccccc43)o2)cc1", "group": "N"}
{"query.smiles": "N#Cc1ccc2nc(NC(=O)CSc3nnc(Cn4cnc5ccccc54)o3)sc2c1", "group": "Y"}
{"query.smiles": "O=C(CSc1nnc(Cn2cnc3ccccc32)o1)Nc1ccc(Cl)cc1", "group": "N"}
{"query.smiles": "O=C(CSc1nnc(Cn2cnc3ccccc32)o1)Nc1ccc(F)cc1", "group": "N"}
{"query.smiles": "CCOc1ccc2nc(NC(=O)CSc3nnc(Cn4cnc5ccccc54)o3)sc2c1", "group": "Y"}
{"query.smiles": "COc1ccc(NC(=O)CSc2nnc(Cn3cnc4ccccc43)o2)cc1", "group": "N"}
{"query.smiles": "O=C(O)c1cn(C2CC2)c2cc(N3CCNCC3)c(F)cc2c1=O", "group": "Y"}
{"query.smiles": "O=C(CSc1nnc(Cn2cnc3ccccc32)o1)Nc1nc2ccc([N+](=O)[O-])cc2s1", "group": "Y"}
{"query.smiles": "O=C(CSc1nnc(Cn2cnc3ccccc32)o1)Nc1ccc(Br)cc1", "group": "Y"}

---

Listed here are molecules together with their documented zone of inhibition at 100 µg/disc.
# System: Aspergillus clavatus
# measurement.notes: Antifungal activity against Aspergillus clavatus MTCC 1323 at 100 ug/disc by paper disc diffusion technique
# Assay type: functional
# protocol.conditions: read-out: IZ

{"query.smiles": "N#Cc1ccc(NC(=O)CSc2nnc(Cn3cnc4ccccc43)o2)cc1", "assay.system": "Aspergillus clavatus", "zone of inhibition at 100 µg/disc": "13 mm"}
{"query.smiles": "O=C(CSc1nnc(Cn2cnc3ccccc32)o1)Nc1ccc(Br)cc1", "assay.system": "Aspergillus clavatus", "zone of inhibition at 100 µg/disc": "23 mm"}
{"query.smiles": "Cc1ccc(NC(=O)CSc2nnc(Cn3cnc4ccccc43)o2)cc1", "assay.system": "Aspergillus clavatus", "zone of inhibition at 100 µg/disc": "12 mm"}
{"query.smiles": "COc1ccc(NC(=O)CSc2nnc(Cn3cnc4ccccc43)o2)cc1", "assay.system": "Aspergillus clavatus", "zone of inhibition at 100 µg/disc": "< 10 mm"}
{"query.smiles": "Cc1ccc2nc(NC(=O)CSc3nnc(Cn4cnc5ccccc54)o3)sc2c1", "assay.system": "Aspergillus clavatus", "zone of inhibition at 100 µg/disc": "12 mm"}
{"query.smiles": "CCOc1ccc(NC(=O)CSc2nnc(Cn3cnc4ccccc43)o2)cc1", "assay.system": "Aspergillus clavatus", "zone of inhibition at 100 µg/disc": "16 mm"}
{"query.smiles": "CC(=O)Nc1ccc2nc(NC(=O)CSc3nnc(Cn4cnc5ccccc54)o3)sc2c1", "assay.system": "Aspergillus clavatus", "zone of inhibition at 100 µg/disc": "23 mm"}
{"query.smiles": "O=C(CSc1nnc(Cn2cnc3ccccc32)o1)Nc1nc2ccc([N+](=O)[O-])cc2s1", "assay.system": "Aspergillus clavatus", "zone of inhibition at 100 µg/disc": "27 mm"}
{"query.smiles": "O=C(CSc1nnc(Cn2cnc3ccccc32)o1)Nc1ccc(I)cc1", "assay.system": "Aspergillus clavatus", "zone of inhibition at 100 µg/disc": "13 mm"}
{"query.smiles": "O=C(CSc1nnc(Cn2cnc3ccccc32)o1)Nc1ccc(F)cc1", "assay.system": "Aspergillus clavatus", "zone of inhibition at 100 µg/disc": "17 mm"}

---

# Test system: Aspergillus clavatus
# measurement.notes: Antifungal activity against Aspergillus clavatus MTCC 1323 at 100 ug/disc by paper disc diffusion technique
# Assay type: functional
# protocol.conditions: read-out: IZ

{"query.smiles": "O=C(CSc1nnc(Cn2cnc3ccccc32)o1)Nc1nc2ccc(I)cc2s1", "zone of inhibition at 100 µg/disc": "14 mm"}
{"query.smiles": "O=C(CSc1nnc(Cn2cnc3ccccc32)o1)Nc1ccc(Cl)cc1", "zone of inhibition at 100 µg/disc": "14 mm"}
{"query.smiles": "O=C(CSc1nnc(Cn2cnc3ccccc32)o1)Nc1nc2ccc(Br)cc2s1", "zone of inhibition at 100 µg/disc": "20 mm"}

---

# Test system: Aspergillus niger
# measurement.notes: Antifungal activity against Aspergillus niger MTCC 282 at 100 ug/disc by paper disc diffusion technique
# Assay type: functional
# protocol.conditions: read-out: IZ
Listed here are compounds together with their documented zone of inhibition at 100 µg/disc.
value.type: zone of inhibition at 100 µg/disc (mm)

{"compound": "COc1ccc(NC(=O)CSc2nnc(Cn3cnc4ccccc43)o2)cc1", "assay.system": "Aspergillus niger", "value.type": "zone of inhibition at 100 µg/disc", "prefix.operator": "=", "data.value": 16}
{"compound": "N#Cc1ccc(NC(=O)CSc2nnc(Cn3cnc4ccccc43)o2)cc1", "assay.system": "Aspergillus niger", "value.type": "zone of inhibition at 100 µg/disc", "prefix.operator": "<", "data.value": 10}
{"compound": "Cc1ccc2nc(NC(=O)CSc3nnc(Cn4cnc5ccccc54)o3)sc2c1", "assay.system": "Aspergillus niger", "value.type": "zone of inhibition at 100 µg/disc", "prefix.operator": "=", "data.value": 12}
{"compound": "O=C(CSc1nnc(Cn2cnc3ccccc32)o1)Nc1nc2ccccc2s1", "assay.system": "Aspergillus niger", "value.type": "zone of inhibition at 100 µg/disc", "prefix.operator": "<", "data.value": 10}
{"compound": "O=C(CSc1nnc(Cn2cnc3ccccc32)o1)Nc1ccc(F)cc1", "assay.system": "Aspergillus niger", "value.type": "zone of inhibition at 100 µg/disc", "prefix.operator": "=", "data.value": 19}
{"compound": "CC(=O)Nc1ccc2nc(NC(=O)CSc3nnc(Cn4cnc5ccccc54)o3)sc2c1", "assay.system": "Aspergillus niger", "value.type": "zone of inhibition at 100 µg/disc", "prefix.operator": "=", "data.value": 24}
{"compound": "O=C(CSc1nnc(Cn2cnc3ccccc32)o1)Nc1nc2ccc(Cl)cc2s1", "assay.system": "Aspergillus niger", "value.type": "zone of inhibition at 100 µg/disc", "prefix.operator": "=", "data.value": 16}
{"compound": "O=C(CSc1nnc(Cn2cnc3ccccc32)o1)Nc1nc2ccc(F)cc2s1", "assay.system": "Aspergillus niger", "value.type": "zone of inhibition at 100 µg/disc", "prefix.operator": "=", "data.value": 21}
{"compound": "CC(=O)Nc1ccc(NC(=O)CSc2nnc(Cn3cnc4ccccc43)o2)cc1", "assay.system": "Aspergillus niger", "value.type": "zone of inhibition at 100 µg/disc", "prefix.operator": "=", "data.value": 22}
{"compound": "O=C(CSc1nnc(Cn2cnc3ccccc32)o1)Nc1ccc(I)cc1", "assay.system": "Aspergillus niger", "value.type": "zone of inhibition at 100 µg/disc", "prefix.operator": "<", "data.value": 10}
{"compound": "Cc1ccc(NC(=O)CSc2nnc(Cn3cnc4ccccc43)o2)cc1", "assay.system": "Aspergillus niger", "value.type": "zone of inhibition at 100 µg/disc", "prefix.operator": "<", "data.value": 10}
{"compound": "O=C(CSc1nnc(Cn2cnc3ccccc32)o1)Nc1nc2ccc([N+](=O)[O-])cc2s1", "assay.system": "Aspergillus niger", "value.type": "zone of inhibition at 100 µg/disc", "prefix.operator": "=", "data.value": 23}
{"compound": "O=C(CSc1nnc(Cn2cnc3ccccc32)o1)Nc1ccc(Cl)cc1", "assay.system": "Aspergillus niger", "value.type": "zone of inhibition at 100 µg/disc", "prefix.operator": "<", "data.value": 10}
{"compound": "O=C(CSc1nnc(Cn2cnc3ccccc32)o1)Nc1ccccc1", "assay.system": "Aspergillus niger", "value.type": "zone of inhibition at 100 µg/disc", "prefix.operator": "<", "data.value": 10}
{"compound": "COc1ccc2nc(NC(=O)CSc3nnc(Cn4cnc5ccccc54)o3)sc2c1", "assay.system": "Aspergillus niger", "value.type": "zone of inhibition at 100 µg/disc", "prefix.operator": "=", "data.value": 17}
{"compound": "CCOc1ccc2nc(NC(=O)CSc3nnc(Cn4cnc5ccccc54)o3)sc2c1", "assay.system": "Aspergillus niger", "value.type": "zone of inhibition at 100 µg/disc", "prefix.operator": "=", "data.value": 20}
{"compound": "CC(=O)N1CCN(c2ccc(OCC3COC(Cn4ccnc4)(c4ccc(Cl)cc4Cl)O3)cc2)CC1 (stereo not drawn) [KETOCONAZOLE]", "assay.system": "Aspergillus niger", "value.type": "zone of inhibition at 100 µg/disc", "prefix.operator": "=", "data.value": 30}
{"compound": "O=C(CSc1nnc(Cn2cnc3ccccc32)o1)Nc1nc2ccc(I)cc2s1", "assay.system": "Aspergillus niger", "value.type": "zone of inhibition at 100 µg/disc", "prefix.operator": "=", "data.value": 14}
{"compound": "O=C(CSc1nnc(Cn2cnc3ccccc32)o1)Nc1nc2ccc(Br)cc2s1", "assay.system": "Aspergillus niger", "value.type": "zone of inhibition at 100 µg/disc", "prefix.operator": "=", "data.value": 19}
{"compound": "CCOc1ccc(NC(=O)CSc2nnc(Cn3cnc4ccccc43)o2)cc1", "assay.system": "Aspergillus niger", "value.type": "zone of inhibition at 100 µg/disc", "prefix.operator": "=", "data.value": 17}
{"compound": "O=C(CSc1nnc(Cn2cnc3ccccc32)o1)Nc1ccc(Br)cc1", "assay.system": "Aspergillus niger", "value.type": "zone of inhibition at 100 µg/disc", "prefix.operator": "=", "data.value": 16}
{"compound": "O=C(CSc1nnc(Cn2cnc3ccccc32)o1)Nc1ccc([N+](=O)[O-])cc1", "assay.system": "Aspergillus niger", "value.type": "zone of inhibition at 100 µg/disc", "prefix.operator": "=", "data.value": 18}
{"compound": "N#Cc1ccc2nc(NC(=O)CSc3nnc(Cn4cnc5ccccc54)o3)sc2c1", "assay.system": "Aspergillus niger", "value.type": "zone of inhibition at 100 µg/disc", "prefix.operator": "=", "data.value": 18}
